Value source: patent US11766434B2

- assayedSystem: Cdc7 (Homo sapiens)
- Sequence (O00311 whole entry): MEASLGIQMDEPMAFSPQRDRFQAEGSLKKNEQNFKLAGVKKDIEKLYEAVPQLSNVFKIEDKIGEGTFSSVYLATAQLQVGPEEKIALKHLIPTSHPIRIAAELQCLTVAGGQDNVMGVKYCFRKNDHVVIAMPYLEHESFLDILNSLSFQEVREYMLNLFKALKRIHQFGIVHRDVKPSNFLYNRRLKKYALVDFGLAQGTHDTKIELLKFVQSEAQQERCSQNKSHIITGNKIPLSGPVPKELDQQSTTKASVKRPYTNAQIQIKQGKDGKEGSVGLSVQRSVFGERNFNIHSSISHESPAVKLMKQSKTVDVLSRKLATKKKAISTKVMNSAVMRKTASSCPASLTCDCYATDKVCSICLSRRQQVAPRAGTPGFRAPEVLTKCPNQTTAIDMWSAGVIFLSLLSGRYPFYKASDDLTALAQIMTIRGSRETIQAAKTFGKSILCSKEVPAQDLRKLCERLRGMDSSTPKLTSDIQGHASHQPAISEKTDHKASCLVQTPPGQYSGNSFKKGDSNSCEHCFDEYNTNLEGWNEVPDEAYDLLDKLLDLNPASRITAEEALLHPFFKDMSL
- Sequence (Q9UBU7 whole entry partner): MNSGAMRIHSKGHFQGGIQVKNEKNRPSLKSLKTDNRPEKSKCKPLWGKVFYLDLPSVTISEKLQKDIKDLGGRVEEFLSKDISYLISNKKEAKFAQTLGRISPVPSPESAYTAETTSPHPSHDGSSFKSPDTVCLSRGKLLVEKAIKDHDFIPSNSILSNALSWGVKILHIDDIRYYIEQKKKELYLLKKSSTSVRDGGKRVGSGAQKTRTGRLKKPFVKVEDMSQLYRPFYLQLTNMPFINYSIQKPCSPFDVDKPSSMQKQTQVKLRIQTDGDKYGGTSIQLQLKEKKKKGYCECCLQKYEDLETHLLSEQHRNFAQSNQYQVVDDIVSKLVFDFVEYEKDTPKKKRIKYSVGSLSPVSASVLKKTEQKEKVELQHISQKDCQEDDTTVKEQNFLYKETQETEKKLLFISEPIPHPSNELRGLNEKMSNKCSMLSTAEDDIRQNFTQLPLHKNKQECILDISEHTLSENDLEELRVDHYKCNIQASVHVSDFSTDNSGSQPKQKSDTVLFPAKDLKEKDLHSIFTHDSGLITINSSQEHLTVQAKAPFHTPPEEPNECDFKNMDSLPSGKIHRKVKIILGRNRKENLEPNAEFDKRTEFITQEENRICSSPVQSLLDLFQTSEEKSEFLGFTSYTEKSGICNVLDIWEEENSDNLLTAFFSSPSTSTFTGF
- assayExplanation: Cdc7 cell pharmacodynamics assay Method 1: pS53MCM2 levels in HCT116 cells
- Type: cell-based
- Design: endogenous in cells
- details: 6 hours treatment, read-out: Biomarker Method 1 (pEC50) (converted)
propertyName: EC50 (µM)
Response body: numeric value in µM, unit text excluded.

For orientation, consider the following solved cases.
molecule="CCc1[nH]ncc1-c1nc(C2CCOCC2)c(Cl)c(=O)[nH]1 [Compound 15]" propertyname=EC50 observedmeasurement=1.74
molecule="Cc1ncsc1-c1nc(C2CCN(C(=O)c3cc(C)n(C)n3)CC2)c(Cl)c(=O)[nH]1 [Compound 23]" propertyname=EC50 observedmeasurement=3.89
molecule="Cc1ncsc1-c1nc(N2CCCC(F)(F)C2)c(Cl)c(=O)[nH]1 [Compound 35]" propertyname=EC50 observedmeasurement=0.024
molecule="Cc1ncsc1-c1nc(N2CCN[C@@H](C)C2)c(Cl)c(=O)[nH]1 [Compound 37]" propertyname=EC50 observedmeasurement=0.11
molecule="O=c1[nH]c(-c2scnc2Cl)nc(C2CCOCC2)c1Cl [Compound 4]" propertyname=EC50 observedmeasurement=0.0457
molecule="Cc1ncsc1-c1nc(N2CCC(O)CC2)c(Cl)c(=O)[nH]1 [Compound 29]" propertyname=EC50 observedmeasurement=0.158

For the molecule shown here, Cc1ncsc1-c1nc(N2CCCC(CO)C2)c(Cl)c(=O)[nH]1 (stereo not drawn) [Compound 36] , give the reported EC50.
0.158

Which value of EC50 has been reported for Cc1ncsc1-c1nc(N2CCN[C@H](C)C2)c(Cl)c(=O)[nH]1 [Compound 32] in the records?
0.263

Data request, read-out EC50, for Cc1ncsc1-c1nc(N2CCC(C)CC2)c(Cl)c(=O)[nH]1 [Compound 30]
0.251

Field request: EC50 | item: Cc1ncsc1-c1nc(N2CCC(CO)CC2)c(Cl)c(=O)[nH]1 [Compound 33]
0.1

What does the data say about its EC50? Entry: Cc1cc(C(=O)N2CCC(c3nc(-c4scnc4C)[nH]c(=O)c3Cl)CC2)no1 [Compound 25]
0.447

Which EC50 value belongs to Cc1ncsc1-c1nc(N2CCN[C@@H](C(F)(F)F)C2)c(Cl)c(=O)[nH]1 [Compound 28] ?
0.0457

---

- assayedSystem: Cdc7 (Homo sapiens)
- assayExplanation: Cdc7 cell pharmacodynamics assay Method 1: pS53MCM2 levels in HCT116 cells
- Type: cell-based
- Parameters: endogenous in cells
- details: 6 hours treatment, read-out: Biomarker Method 1 (pEC50) (converted)
A collection of compounds and their measured EC50
State just the number; it will be interpreted in µM.

compound="Cc1ncsc1-c1nc(N2CCNC(C(F)(F)F)C2)c(Cl)c(=O)[nH]1 (stereo not drawn)" propertyname=EC50 outputunit=µM observedmeasurement=0.0851
compound=Cc1ncoc1-c1nc(C2CCOCC2)c(Cl)c(=O)[nH]1 propertyname=EC50 outputunit=µM observedmeasurement=3.63

Could you now consider this next compound?
For the compound shown here, CCc1ncsc1-c1nc(C2CCOCC2)c(Cl)c(=O)[nH]1 , give the reported EC50.
1.1
